- Tested on: Tau phosphorylation at Ser396 (pSer396)
- testDetails: Tau phosphorylation assay (pSer396 ELISA / western blot) in SH-SY5Y cells;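 further: EC50 for reduction of Tau pSer396 in lysed cells, measured by colorimetric ELISA or chemiluminescent western blot, both using the same pSer396 antibody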
- Format: cell-based, human
- runParameters: Homo sapiens; SH-SY5Y cells, overnight (16-18 h) exposure; read-out: pSer396 Tau EC50
pEC50: −log10 of the molar value.

{"structure": "C[C@H]1CCCN1CC(=O)Nc1cc2cc(-c3cnn(C)c3)ccc2cn1", "pEC50": 6.31}
{"structure": "Cc1nnc(-c2ccc3cnc(NC(=O)C4(F)CCCCC4)cc3c2)s1", "pEC50": 5.96}
{"structure": "[2H]C1([2H])CCC([2H])([2H])N1CC(=O)Nc1cc2cc(-c3cnn(C)c3)ccc2cn1", "pEC50": 6.46}
{"structure": "Cn1cc(-c2ccc3cnc(NC(=O)CN4CCC(F)CC4)cc3c2)cn1", "pEC50": 6.06}
{"structure": "Cc1ncc(-c2ccc3cnc(NC(=O)CN4CCN(C)CC4)cc3c2)o1", "pEC50": 5.82}
{"structure": "CC1CCN(CC(=O)Nc2cc3cc(-c4cnn(C)c4)ccc3cn2)CC1", "pEC50": 6.18}
{"structure": "Cn1cc(-c2ccc3cnc(NC(=O)[C@H]4CCCNC4)cc3c2)cn1", "pEC50": 6.20}
{"structure": "Cn1cncc1-c1ccc2cnc(NC(=O)C3CCC(F)(F)CC3)cc2c1", "pEC50": 6.92}
{"structure": "O=C(Nc1cc2cc(-c3cnco3)ccc2cn1)C1CCN(CCC(F)(F)F)CC1", "pEC50": 6.44}
{"structure": "CC(C)CN1CCC(F)(C(=O)Nc2cc3cc(-c4nncn4C)ccc3cn2)CC1", "pEC50": 6.17}
{"structure": "Cc1ncc(-c2ccc3cnc(NC(=O)[C@H]4C[C@H](N5CCOCC5)C4)cc3c2)o1", "pEC50": 7.24}
{"structure": "CN1CCC(N2CCC(C(=O)Nc3cc4cc(-c5cncs5)ccc4cn3)CC2)CC1", "pEC50": 6.36}
{"structure": "CN1CCN(CC(=O)Nc2cc3cc(-c4cnn(C)c4)cc(F)c3cn2)CC1", "pEC50": 5.57}
{"structure": "Cn1cc(-c2ccc3cnc(NC(=O)CN4CC[C@@H](F)C4)cc3c2)cn1", "pEC50": 6.27}
{"structure": "C[C@@H]1CCCN1CC(=O)Nc1cc2cc(-c3cnn(C)c3)ccc2cn1", "pEC50": 6.73}
{"structure": "Cn1cc(-c2ccc3cnc(NC(=O)C4CCN(CC(C)(C)O)CC4)cc3c2)cn1", "pEC50": 6.53}
{"structure": "Cn1cc(-c2ccc3cnc(NC(=O)C4CCOCC4)cc3c2)cn1", "pEC50": 6.54}
{"structure": "[2H]C([2H])([2H])N1CCN(CC(=O)Nc2cc3cc(-c4cnn(C)c4)ccc3cn2)CC1", "pEC50": 6.00}
{"structure": "Cn1cc(-c2ccc3cnc(NC(=O)C4CCNCC4)cc3c2)nn1", "pEC50": 6.04}
{"structure": "Cn1cc(-c2ccc3cnc(NC(=O)C4CCC(F)(F)CC4)cc3c2)cn1", "pEC50": 6.54}
{"structure": "Cn1ncc(-c2ccc3cnc(NC(=O)[C@H]4CC[C@H](CO)CC4)cc3c2)c1CN1CCCCC1", "pEC50": 6.49}
{"structure": "CC(C)CN1CCC(C(=O)Nc2cc3cc(-c4cn(C)nn4)ccc3cn2)CC1", "pEC50": 7.41}
{"structure": "Cn1cc(-c2ccc3cnc(NC(=O)C4CCN(CCC(F)(F)F)CC4)cc3c2)cn1", "pEC50": 6.50}
{"structure": "Cn1cc(-c2ccc3cnc(NC(=O)C4CCN(CC(C)(C)F)CC4)cc3c2)cn1", "pEC50": 6.41}
{"structure": "CCn1cc(-c2ccc3cnc(NC(=O)CN4CCCC4)cc3c2)cn1", "pEC50": 5.80}
{"structure": "Cn1cc(-c2ccc3cnc(NC(=O)C4CCN(C5CCOCC5)CC4)cc3c2)cn1", "pEC50": 6.60}
{"structure": "CN1CCC(C(=O)Nc2cc3cc(-c4nnc(N(C)C)o4)ccc3cn2)CC1", "pEC50": 7.39}
{"structure": "CCN1CCC(C(=O)Nc2cc3cc(-c4cnn(C)c4)c(F)cc3cn2)CC1", "pEC50": 6.43}

###

- System: Wnt pathway (Sp5-Luc reporter, TCF/LEF binding sites) in SW480 colon carcinoma cells
- testDetails: Screening assay for Wnt activity: Sp5-Luc reporter gene assay;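 further: firefly luciferase luminescence read in stably transduced SW480 cells carrying the Sp5 promoter reporter with eight TCF/LEF sites, compounds given in 0.1% DMSO final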
- Assay type: cell-based, human
- runParameters: Homo sapiens; Sp5-Luc reporter, SW480 cells, 36 to 48 hours

{"molecule": "O=C(Nc1cc2cc(-c3cncs3)ccc2cn1)[C@H]1CC[C@H](CN2CC(F)C2)CC1", "experimentalTarget": "Wnt pathway (Sp5-Luc reporter, TCF/LEF binding sites) in SW480 colon carcinoma cells", "measurementQualifier": "=", "EC50, nM": 703}
{"molecule": "Cn1cc(-c2ccc3cnc(NC(=O)[C@@H]4CCCO4)cc3c2)cn1", "experimentalTarget": "Wnt pathway (Sp5-Luc reporter, TCF/LEF binding sites) in SW480 colon carcinoma cells", "measurementQualifier": "=", "EC50, nM": 3900}
{"molecule": "CN1CCOC(CC(=O)Nc2cc3cc(-c4cnn(C)c4)ccc3cn2)C1 (centres unmarked)", "experimentalTarget": "Wnt pathway (Sp5-Luc reporter, TCF/LEF binding sites) in SW480 colon carcinoma cells", "measurementQualifier": "=", "EC50, nM": 1000}
{"molecule": "Cc1ncc(-c2ccc3cnc(NC(=O)CN4CCCC4)cc3c2)s1", "experimentalTarget": "Wnt pathway (Sp5-Luc reporter, TCF/LEF binding sites) in SW480 colon carcinoma cells", "measurementQualifier": "=", "EC50, nM": 7970}
{"molecule": "Cn1cc(-c2ccc3cnc(NC(=O)C(C)(C)F)cc3c2)nn1", "experimentalTarget": "Wnt pathway (Sp5-Luc reporter, TCF/LEF binding sites) in SW480 colon carcinoma cells", "measurementQualifier": ">", "EC50, nM": 10000}
{"molecule": "Cn1cc(-c2ccc3cnc(NC(=O)C4CCN(CCC(F)(F)F)CC4)cc3c2)nn1", "experimentalTarget": "Wnt pathway (Sp5-Luc reporter, TCF/LEF binding sites) in SW480 colon carcinoma cells", "measurementQualifier": "=", "EC50, nM": 1720}
{"molecule": "Cn1cc(-c2ccc3cnc(NC(=O)CN4C5CCC4COC5)cc3c2)cn1", "experimentalTarget": "Wnt pathway (Sp5-Luc reporter, TCF/LEF binding sites) in SW480 colon carcinoma cells", "measurementQualifier": "=", "EC50, nM": 9440}
{"molecule": "Cc1nnc(-c2ccc3cnc(NC(=O)CN4CCOCC4)cc3c2)s1", "experimentalTarget": "Wnt pathway (Sp5-Luc reporter, TCF/LEF binding sites) in SW480 colon carcinoma cells", "measurementQualifier": "=", "EC50, nM": 1470}
{"molecule": "Cn1cc(-c2ccc3cnc(NC(=O)C4CCN(CC(C)(F)F)CC4)cc3c2)cn1", "experimentalTarget": "Wnt pathway (Sp5-Luc reporter, TCF/LEF binding sites) in SW480 colon carcinoma cells", "measurementQualifier": "=", "EC50, nM": 2900}
{"molecule": "Cc1nnc(-c2ccc3cnc(NC(=O)CN4CCCCC4)cc3c2)s1", "experimentalTarget": "Wnt pathway (Sp5-Luc reporter, TCF/LEF binding sites) in SW480 colon carcinoma cells", "measurementQualifier": "=", "EC50, nM": 2070}
{"molecule": "Cc1nnc(-c2ccc3cnc(NC(=O)C4CCN(C(=O)c5ccccc5)CC4)cc3c2)s1", "experimentalTarget": "Wnt pathway (Sp5-Luc reporter, TCF/LEF binding sites) in SW480 colon carcinoma cells", "measurementQualifier": "=", "EC50, nM": 779}
{"molecule": "O=C(Nc1cc2cc(-c3cnco3)ccc2cn1)[C@H]1CCCO1", "experimentalTarget": "Wnt pathway (Sp5-Luc reporter, TCF/LEF binding sites) in SW480 colon carcinoma cells", "measurementQualifier": "=", "EC50, nM": 3740}
{"molecule": "O=C(CN1CCCC1)Nc1cc2cc(-c3cnco3)ccc2cn1", "experimentalTarget": "Wnt pathway (Sp5-Luc reporter, TCF/LEF binding sites) in SW480 colon carcinoma cells", "measurementQualifier": "=", "EC50, nM": 1080}
{"molecule": "Cn1cc(-c2ccc3cnc(NC(=O)C4CCN(Cc5ccccn5)CC4)cc3c2)cn1", "experimentalTarget": "Wnt pathway (Sp5-Luc reporter, TCF/LEF binding sites) in SW480 colon carcinoma cells", "measurementQualifier": "=", "EC50, nM": 669}
